These entries and their values trace back to the supplement of paper PMC12632987.

median log2 fold change values, listed per item
Target: T1, USP38, Q8NB14
T1 chain: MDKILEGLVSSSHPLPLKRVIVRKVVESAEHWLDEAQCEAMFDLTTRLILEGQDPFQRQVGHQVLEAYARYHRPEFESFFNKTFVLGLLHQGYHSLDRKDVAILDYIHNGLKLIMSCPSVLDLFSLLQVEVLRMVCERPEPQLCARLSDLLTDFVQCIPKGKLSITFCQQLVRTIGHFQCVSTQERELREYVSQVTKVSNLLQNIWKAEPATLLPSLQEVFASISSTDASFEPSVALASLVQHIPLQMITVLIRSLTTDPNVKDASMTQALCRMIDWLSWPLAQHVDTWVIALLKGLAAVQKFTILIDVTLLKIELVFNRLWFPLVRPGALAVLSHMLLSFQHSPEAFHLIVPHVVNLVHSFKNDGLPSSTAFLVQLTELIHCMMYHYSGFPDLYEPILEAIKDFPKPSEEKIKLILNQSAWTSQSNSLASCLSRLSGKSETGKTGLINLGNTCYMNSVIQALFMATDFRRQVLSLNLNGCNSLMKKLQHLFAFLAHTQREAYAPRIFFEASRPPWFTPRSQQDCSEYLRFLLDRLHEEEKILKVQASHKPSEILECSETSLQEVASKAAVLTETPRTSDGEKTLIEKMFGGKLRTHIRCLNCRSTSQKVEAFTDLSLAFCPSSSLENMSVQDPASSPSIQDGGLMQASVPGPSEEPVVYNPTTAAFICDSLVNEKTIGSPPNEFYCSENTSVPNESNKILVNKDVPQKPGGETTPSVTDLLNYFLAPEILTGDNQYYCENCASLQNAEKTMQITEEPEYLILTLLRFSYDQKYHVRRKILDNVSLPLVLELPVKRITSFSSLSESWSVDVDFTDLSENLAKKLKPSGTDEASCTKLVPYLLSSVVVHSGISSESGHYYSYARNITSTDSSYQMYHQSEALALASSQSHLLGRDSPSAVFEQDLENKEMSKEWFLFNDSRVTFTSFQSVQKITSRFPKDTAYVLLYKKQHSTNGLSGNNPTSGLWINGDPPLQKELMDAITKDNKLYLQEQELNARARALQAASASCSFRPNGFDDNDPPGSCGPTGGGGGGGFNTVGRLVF
Test: median log2 fold change of GCK-ALFA target abundance (FLAG IP / Myc IP barcode read proportion) (log2 ratio); each designed protein is fused to an ALFA-tag nanobody in HEK293 cells to bring the named protein to FLAG-tagged glucokinase (GCK); Myc marks an untargeted standard; higher = target protein stabilised (more abundant)
Details: target protein: 3xFLAG-MCP-GCK-ALFA reporter; HEK293 landing pad (RPLP)
Just the number.

Example entries begin here.
Please report the recorded median log2 fold change for usp_38_diff_out_18_14_349 (protein) SEELREQTLSNLKSLKKEVEEVTERTERIVEKLRGDPEAARALLDTRIQALEGVIKYAEEVLKEAEEEGWEEVAKAAKELIEAAKEAKKRAEELRKELEE . -0.113

What do you have for usp_38_diff_out_15_114_141 (protein) SAEEEAAAELREREVAAGLAVARDLLAELEELARRGRLTPAREERLLLGLRGLARLAIELGDRELAEEVLRALDAFAAIASPELRAEAEALRAELEAAMA ? 0.234

And then usp_38_diff_out_22_74_485 (protein) SAEEEANAALRAEIDAKVADWNKYREEAERRIEEAIAAGRYREARRLLAELDDKTTDLIIWLNKQALANGAIHDYALAKAEEIRKKTTEVVERAEARLAA , what is it? -0.0773

***
Reported median log2 fold change for usp_38_diff_out_18_28_361 (protein) MEEERRELEEELRRLEEELERLITEATEAITRALTAHPDDEEVWKLVDELWDALGKAAAAINEARELLREGGPLEEVKAKLDEARKYLKEAKKLLEELKK : what is it? 0.017
